Recorded values, source patent US20200283478A1.

// values below are reported s/n ratio
molecular target: T1, PCSK9Δhelix (human, Chemically biotinylated in the phage ELISAs; the site is not given.); experiment: phage spot ELISA
T1 construct: construct M1-Q692 with engineered TEV site, cleaved by TEV; also called His-PCSK9Δhelix; open groove PCSK9Δhelix
T1 sequence (prodomain, as listed by the source mutant limits assumed, chain 1 of 2): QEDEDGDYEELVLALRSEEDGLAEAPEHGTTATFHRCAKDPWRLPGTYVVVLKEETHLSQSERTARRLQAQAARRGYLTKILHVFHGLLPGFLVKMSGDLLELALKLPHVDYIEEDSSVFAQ
T1 sequence (chain, as listed by the source mutant limits assumed, chain 2 of 2): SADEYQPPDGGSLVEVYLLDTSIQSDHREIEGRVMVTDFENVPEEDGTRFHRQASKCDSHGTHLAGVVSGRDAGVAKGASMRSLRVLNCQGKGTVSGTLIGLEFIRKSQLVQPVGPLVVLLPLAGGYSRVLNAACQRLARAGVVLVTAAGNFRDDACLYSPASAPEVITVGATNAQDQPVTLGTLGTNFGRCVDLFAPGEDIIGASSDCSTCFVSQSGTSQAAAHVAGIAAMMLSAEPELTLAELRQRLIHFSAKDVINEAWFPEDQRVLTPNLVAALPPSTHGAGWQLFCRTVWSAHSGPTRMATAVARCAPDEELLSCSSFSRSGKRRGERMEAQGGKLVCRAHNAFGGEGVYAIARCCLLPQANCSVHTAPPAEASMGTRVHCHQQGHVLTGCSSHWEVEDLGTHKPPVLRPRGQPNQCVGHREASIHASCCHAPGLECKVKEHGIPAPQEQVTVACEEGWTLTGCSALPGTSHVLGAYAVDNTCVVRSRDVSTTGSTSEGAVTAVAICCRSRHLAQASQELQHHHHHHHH
// response body must contain only the number

Worked examples follow.
> print(dat)
                                     binder  recorded.value
1  TAFTSWEEYLDWVGSGDCLRYRVGSSCS [SEQ ID NO 360]            28.9
2  TAFTSWEEYLDWVGSGCVKVGLSWIGDCNS [SEQ ID NO 334]            25.1
3  TAFTSWEEYLDWVGSGPTSGLTPS [SEQ ID NO 361]             1.3
4  TAFTSWEEYLDWVGSGGDCGYHYMCSMT [SEQ ID NO 345]            25.5
5  TAFTSWEEYLDWVGSGNCARLYSHQRDYSQVC [SEQ ID NO 352]            26.1

Give its s/n ratio value. Item: TAFTSWEEYLDWVGSGTRYADRGVMVYSLS [SEQ ID NO 321] 27.5

Give its s/n ratio value. Item: TAFTSWEEYLDWVGSGSSTWHFVGGVRV [SEQ ID NO 354] 29.7
